Tested on: 171881-019-R-J1-PDC tumor spheroid viability;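 also: spheroids exposed to compound for 7 days before viability read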
assay_procedure: Anticancer human tumor 171881-019-R-J1-PDC patient-derived invasive breast carcinoma cell line growth inhibition [PI3K]
applied_conditions: curve of first compound; second compound 0.01 µM; spheroids with HUVEC and MSC
assay_metric: IC50 (nM)
Value expressed in nM; do not type the unit.

• CCCS(=O)(=O)Nc1ccc(F)c(C(=O)c2c[nH]c3ncc(-c4ccc(Cl)cc4)cc23)c1F + CC(Nc1ccc2c(c1)OCCn1cc(N3C(=O)OCC3C(F)F)nc1-2)C(N)=O = 5750
• CC(C)n1nc(-c2ccc3oc(N)nc3c2)c2c(N)ncnc21 + CC(Nc1ccc2c(c1)OCCn1cc(N3C(=O)OCC3C(F)F)nc1-2)C(N)=O = 4.01

Please look at the following compound next.
Documented IC50 of Cn1nccc1Nc1nccc(-c2ccn(C(CO)c3ccc(Cl)c(F)c3)c(=O)c2)n1 (stereo unspecified) + CC(Nc1ccc2c(c1)OCCn1cc(N3C(=O)OCC3C(F)F)nc1-2)C(N)=O : 113
